ASSAY_TEXT: Hygroscopicity measurements (DVS sorption/desorption profiles)
Assay type: physicochemical
RUN_CONDITIONS: Target % P/P0 80.0; 25° C.
QUANTITY_KIND: Change in Mass (%) - ref, Sorption

{"columns": ["MOLECULE", "QUANTITY_KIND", "DATA_VALUE"],
 "data": [
  ["Cc1nc(-c2ccc(OCC(C)C)c(C#N)c2)sc1C(=O)O [Form G of U.S. Pat. No. 6,225,474, reference compound]", "Change in Mass (%) - ref, Sorption", 2.342],
  ["Cc1nc(-c2ccc(OCC(C)C)c(C#N)c2)sc1C(=O)O [Form IX]", "Change in Mass (%) - ref, Sorption", 1.000]
]}

P = Cc1nc(-c2ccc(OCC(C)C)c(C#N)c2)sc1C(=O)O [Form V]
Q = Cc1nc(-c2ccc(OCC(C)C)c(C#N)c2)sc1C(=O)O [Form XI]
In the pair P and Q , the larger recorded Change in Mass (%) - ref, Sorption belongs to which? Respond using the label that marks the chosen record.
P
(P: 15.44%, Q: 2.414%)

---

ASSAY_TEXT: Hygroscopicity measurements (DVS sorption/desorption profiles)
Format: physicochemical
RUN_CONDITIONS: Target % P/P0 40.0; 25° C.
QUANTITY_KIND: Change in Mass (%) - ref, Sorption

{"columns": ["MOLECULE", "Change in Mass (%) - ref, Sorption"],
 "data": [
  ["Cc1nc(-c2ccc(OCC(C)C)c(C#N)c2)sc1C(=O)O [Form V]", 0.20],
  ["Cc1nc(-c2ccc(OCC(C)C)c(C#N)c2)sc1C(=O)O [Form XI]", 1.410]
]}

P = Cc1nc(-c2ccc(OCC(C)C)c(C#N)c2)sc1C(=O)O [Form G of U.S. Pat. No. 6,225,474, reference compound]
Q = Cc1nc(-c2ccc(OCC(C)C)c(C#N)c2)sc1C(=O)O [Form IX]
When the recorded Change in Mass (%) - ref, Sorption values are compared, which is smaller: that of P or that of Q ? Reply briefly: the label of your chosen item.
Q

---

ASSAY_TEXT: Bulk and tapped density measurements
Format: physicochemical
QUANTITY_KIND: Tapped Density (g/mL)

Examples with answers:
{"columns": ["MOLECULE", "QUANTITY_KIND", "UNIT_ABBREVIATION", "DATA_VALUE"],
 "data": [
  ["Cc1nc(-c2ccc(OCC(C)C)c(C#N)c2)sc1C(=O)O [Form V]", "Tapped Density", "g/mL", 0.637],
  ["Cc1nc(-c2ccc(OCC(C)C)c(C#N)c2)sc1C(=O)O [Form XI]", "Tapped Density", "g/mL", 0.553]
]}

I = Cc1nc(-c2ccc(OCC(C)C)c(C#N)c2)sc1C(=O)O [Form G of U.S. Pat. No. 6,225,474, reference compound]
II = Cc1nc(-c2ccc(OCC(C)C)c(C#N)c2)sc1C(=O)O [Form IX]
Of the two listed items, which has the higher Tapped Density? First: I Second: II # reply format: chosen label
I

---

ASSAY_TEXT: Aqueous solubility measurements
Type: physicochemical
RUN_CONDITIONS: media pH 4.5 (USP); 24 hours at 25° C.
QUANTITY_KIND: Visual solubility

{"columns": ["COMPOUND", "DATA_VALUE"],
 "data": [
  ["Cc1nc(-c2ccc(OCC(C)C)c(C#N)c2)sc1C(=O)O [Form V]", "Turbid + few particles"],
  ["Cc1nc(-c2ccc(OCC(C)C)c(C#N)c2)sc1C(=O)O [Form XI]", "few particles"],
  ["Cc1nc(-c2ccc(OCC(C)C)c(C#N)c2)sc1C(=O)O [Form G of U.S. Pat. No. 6,225,474, reference compound]", "few particles"],
  ["Cc1nc(-c2ccc(OCC(C)C)c(C#N)c2)sc1C(=O)O [Form IX]", "Turbid + few particles"]
]}

---

ASSAY_TEXT: Hygroscopicity measurements (DVS sorption/desorption profiles)
Assay type: physicochemical
RUN_CONDITIONS: Target % P/P0 40.0; 25° C.
QUANTITY_KIND: Change in Mass (%) - ref, Desorption

{"columns": ["COMPOUND", "Change in Mass (%) - ref, Desorption"],
 "data": [
  ["Cc1nc(-c2ccc(OCC(C)C)c(C#N)c2)sc1C(=O)O [Form G of U.S. Pat. No. 6,225,474, reference compound]", 1.806]
]}

a = Cc1nc(-c2ccc(OCC(C)C)c(C#N)c2)sc1C(=O)O [Form XI]
b = Cc1nc(-c2ccc(OCC(C)C)c(C#N)c2)sc1C(=O)O [Form IX]
c = Cc1nc(-c2ccc(OCC(C)C)c(C#N)c2)sc1C(=O)O [Form V]
Rank entries according to their Change in Mass (%) - ref, Desorption, from the largest number down. When ranking, write the labels in the order the request describes.
a, b, c
(a: 1.560%, b: 0.510%, c: −8.30%)

---

ASSAY_TEXT: Hygroscopicity measurements (DVS sorption/desorption profiles)
Assay type: physicochemical
RUN_CONDITIONS: Target % P/P0 70.0; 25° C.
QUANTITY_KIND: Change in Mass (%) - ref, Hysteresis

Please review the entries below; each comes with its answer.
{"columns": ["COMPOUND", "Change in Mass (%) - ref, Hysteresis"],
 "data": [
  ["Cc1nc(-c2ccc(OCC(C)C)c(C#N)c2)sc1C(=O)O [Form V]", 12.45],
  ["Cc1nc(-c2ccc(OCC(C)C)c(C#N)c2)sc1C(=O)O [Form G of U.S. Pat. No. 6,225,474, reference compound]", 0.119]
]}

P = Cc1nc(-c2ccc(OCC(C)C)c(C#N)c2)sc1C(=O)O [Form IX]
Q = Cc1nc(-c2ccc(OCC(C)C)c(C#N)c2)sc1C(=O)O [Form XI]
# min-compare on Change in Mass (%) - ref, Hysteresis between P and Q Answer = label.
Q
(Q: 0.130%, P: 0.391%)

---

ASSAY_TEXT: Aqueous solubility measurements
Type: physicochemical
RUN_CONDITIONS: final pH of saturated solution; media pH 6.8 (USP); 24 hours at 25° C.
QUANTITY_KIND: pH

{"columns": ["MOLECULE", "pH"],
 "data": [
  ["Cc1nc(-c2ccc(OCC(C)C)c(C#N)c2)sc1C(=O)O [Form G of U.S. Pat. No. 6,225,474, reference compound]", 6.686],
  ["Cc1nc(-c2ccc(OCC(C)C)c(C#N)c2)sc1C(=O)O [Form V]", 6.641],
  ["Cc1nc(-c2ccc(OCC(C)C)c(C#N)c2)sc1C(=O)O [Form XI]", 6.684],
  ["Cc1nc(-c2ccc(OCC(C)C)c(C#N)c2)sc1C(=O)O [Form IX]", 6.477]
]}

---

ASSAY_TEXT: Hygroscopicity measurements (DVS sorption/desorption profiles)
Type: physicochemical
RUN_CONDITIONS: Target % P/P0 90.0; 25° C.
QUANTITY_KIND: Change in Mass (%) - ref, Desorption

{"columns": ["COMPOUND", "UNIT_ABBREVIATION", "Change in Mass (%) - ref, Desorption"],
 "data": [
  ["Cc1nc(-c2ccc(OCC(C)C)c(C#N)c2)sc1C(=O)O [Form G of U.S. Pat. No. 6,225,474, reference compound]", "%", 2.776]
]}

P = Cc1nc(-c2ccc(OCC(C)C)c(C#N)c2)sc1C(=O)O [Form IX]
Q = Cc1nc(-c2ccc(OCC(C)C)c(C#N)c2)sc1C(=O)O [Form XI]
R = Cc1nc(-c2ccc(OCC(C)C)c(C#N)c2)sc1C(=O)O [Form V]
Sort ascending by Change in Mass (%) - ref, Desorption. Order the labels as requested and list them.
P, Q, R

---

ASSAY_TEXT: Hygroscopicity measurements (DVS sorption/desorption profiles)
Assay type: physicochemical
RUN_CONDITIONS: Target % P/P0 30.0; 25° C.
QUANTITY_KIND: Change in Mass (%) - ref, Sorption

{"columns": ["COMPOUND", "DATA_VALUE"],
 "data": [
  ["Cc1nc(-c2ccc(OCC(C)C)c(C#N)c2)sc1C(=O)O [Form V]", 0.14],
  ["Cc1nc(-c2ccc(OCC(C)C)c(C#N)c2)sc1C(=O)O [Form XI]", 1.222]
]}

1 = Cc1nc(-c2ccc(OCC(C)C)c(C#N)c2)sc1C(=O)O [Form G of U.S. Pat. No. 6,225,474, reference compound]
2 = Cc1nc(-c2ccc(OCC(C)C)c(C#N)c2)sc1C(=O)O [Form IX]
Parameter metric = Change in Mass (%) - ref, Sorption. Return the lower-valued option from 1 and 2 . // caller expects the label of the chosen entry
2
(2: 0.252%, 1: 1.473%)
